Measured protein stability index accompanies every entry in the list below.
B1: C8orf76 (parent)
chain: KLAEAYLNLGPALSAALASSQKQH

- Variants of: B1
- Test Summary: protein stability index of a GFP-peptide fusion (GPS, HEK-293T) (PSI 1-6); higher = more stable;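 further: lentivirally expressed fusions sorted by FACS into six bins by GFP to DsRed ratio, PSI derived from sequencing read proportions per bin multiplied by bin number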
- Condition: c terminus: a fixed tail appended
Assay Readout: protein stability index

> print(dat)
              sequence.chain  measured.value
 1  KLAEAYLNLGPALSAAGASSQKQH            1.95
 2  KLAEAYLNLGPALSAALASSYKQH            4.14
 3  KLAEAYLNLGPALSPALASSQKQH            2.36
 4  LLAEAYLNLGPALSAALASSQKQH            5.14
 5  KLAEAYLNLGPALSAALASSQKDH            1.97
 6  KLREAYLNLGPALSAALASSQKQH            2.24
 7  KLAEAYLNLGPALKAALASSQKQH             1.3
 8  KLAEAYLNLGPALSAALASSWKQH            2.31
 9  KLAEAYLNLKPALSAALASSQKQH            2.26
10  KLAEAYLNLGPALSAALADSQKQH            1.89
11  KLAETYLNLGPALSAALASSQKQH            2.93
12  KLAEAYLNLGPALVAALASSQKQH            4.08
13  KLAEAYLNLGPALSSALASSQKQH            1.54
14  KLAEAYLNLGPALSAALASCQKQH             3.5
15  KLAEAYLNLGPALSARLASSQKQH            2.43
16  PLAEAYLNLGPALSAALASSQKQH            1.19
17  KLAEAYLNLGPALSAALQSSQKQH             1.9
18  KLAEAYLNLGIALSAALASSQKQH            2.53
19  KLAEAYLNLGPALSCALASSQKQH             2.3
20  KLAEAYLNLGPALSRALASSQKQH            2.34
21  KLAEAYLNLGPALRAALASSQKQH            2.06
22  KLAEAYLNLGPALSAALKSSQKQH            2.02
